Attribution: the supplement of paper PMC8728848

Entries and their glycan array binding signal (z-score)
Target: Gal(b1-4)GlcNAc(b1-3)[GlcNAc(b1-6)]Gal(b1-4)GlcNAc
Test: glycan array binding signal (z-score within array); higher = stronger binding
Details: glycan notation: IUPAC condensed, linker removed
The full list was thinned out, with the strongest signals kept by preference.
// print number alone

MUB70 (Lactobacillus reuteri) (protein) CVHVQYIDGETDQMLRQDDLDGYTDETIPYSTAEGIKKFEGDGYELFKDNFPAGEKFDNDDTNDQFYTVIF = -0.071
CVN (Nostoc ellipsosporum), P81180 (protein) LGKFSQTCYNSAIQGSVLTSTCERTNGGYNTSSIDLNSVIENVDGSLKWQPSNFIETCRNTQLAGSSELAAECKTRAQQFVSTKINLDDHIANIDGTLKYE = -0.306
Thrombomodulin (Mus musculus) (protein) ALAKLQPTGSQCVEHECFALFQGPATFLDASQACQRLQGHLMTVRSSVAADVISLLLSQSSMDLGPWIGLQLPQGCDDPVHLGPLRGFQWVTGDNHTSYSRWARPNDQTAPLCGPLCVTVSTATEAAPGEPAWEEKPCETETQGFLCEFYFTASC = -0.029

Okay, now this binder:
Query: Which measured glycan array binding signal (z-score) value corresponds to Sp8391B-bot-388-20-388 (Bacteroides ovatus) (protein) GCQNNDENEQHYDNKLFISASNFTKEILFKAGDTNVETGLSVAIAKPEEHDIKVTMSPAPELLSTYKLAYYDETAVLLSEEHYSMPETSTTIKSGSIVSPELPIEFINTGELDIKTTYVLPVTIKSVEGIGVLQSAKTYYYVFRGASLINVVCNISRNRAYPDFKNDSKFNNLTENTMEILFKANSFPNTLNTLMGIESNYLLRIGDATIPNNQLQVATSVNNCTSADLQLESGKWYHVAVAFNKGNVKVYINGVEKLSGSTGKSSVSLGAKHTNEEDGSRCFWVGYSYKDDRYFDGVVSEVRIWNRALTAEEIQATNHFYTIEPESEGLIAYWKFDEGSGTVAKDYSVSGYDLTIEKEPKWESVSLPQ ?
Response: 0.193
